Entries annotated with measured growth AUC
- Tested on: Parabacteroides merdae
- run.description: growth AUC relative to DMSO control (median of replicates) (fraction); higher = more growth (less inhibition), active = hit call of the paper
- setup.conditions: 20 µM; 24 h

Worked set:
• N#Cc1nn(-c2c(Cl)cc(C(F)(F)F)cc2Cl)c(N)c1S(=O)(=O)C(F)(F)F = 0.97 (inactive)
• CC1(C)C(C=C(Cl)Cl)C1C(=O)OCc1cccc(Oc2ccccc2)c1 (mixture of isomers) = 0.951 (inactive)

Look up growth AUC: Clc1ccc(Cl)c(Cl)c1Cl
0.999 (inactive)

###

- Tested on: Bacteroides uniformis
- run.description: growth AUC relative to DMSO control (median of replicates) (fraction); higher = more growth (less inhibition), active = hit call of the paper
- setup.conditions: 20 µM; 24 h
reported.property: growth AUC
I'd appreciate a reply containing only the number, no unit.

Study these solved cases before continuing.
- CC(C)N(Cc1ccccc1)C(=O)C(C)(C)C: 0.999
- CC(C)=NOCCOC(=O)[C@@H](C)Oc1ccc(Oc2cnc3cc(Cl)ccc3n2)cc1: 0.899
- CCCSP(=O)(OCC)Oc1ccc(Br)cc1Cl (stereo unspecified): 0.881
- CC(C)Oc1cc(-n2nc(C(C)(C)C)oc2=O)c(Cl)cc1Cl: 0.898
- CC1COC(Cn2cncn2)(c2ccc(Oc3ccc(Cl)cc3)cc2Cl)O1 (stereo unspecified): 0.839

Given the compound COP(=S)(OC)SCC(=O)N(c1ccc(Cl)cc1)C(C)C , what is its reported growth AUC?
0.912

Name the reported growth AUC value associated with the compound Cc1ccc(N=CN(C)C=Nc2ccc(C)cc2C)c(C)c1
1.02

# lookup: growth AUC of Nc1ccc(Cl)cc1
1.02

Query (compound): COP(=S)(OC)Oc1ccc(S(=O)(=O)N(C)C)cc1 ; field requested: growth AUC
0.981

// query growth AUC value for entry CCCCC(CC)COC(=O)c1ccccc1C(=O)OCC(CC)CCCC (stereo unspecified)
1.03

Fill in the blank: the reported growth AUC of OC(Cn1cncn1)(c1ccc(F)cc1)c1ccccc1F (stereo unspecified) is ____.
0.999

###

- Test system: Bifidobacterium longum subsp. longum
- run.description: growth AUC relative to DMSO control (median of replicates) (fraction); higher = more growth (less inhibition), active = hit call of the paper
- setup.conditions: 20 µM; 24 h
The entries below are paired with their reported growth AUC.
Just the number, please, no unit attached.

GET /values?readout=growth AUC&item= O=C1C(Cl)=C(Cl)C(=O)c2ccccc21
0.904

Quick one: growth AUC for ClC1C(Cl)C(Cl)C(Cl)C(Cl)C1Cl (mixture of isomers) ?
0.921

Need growth AUC of ClC1=C(Cl)C2(Cl)C(CBr)CC1(Cl)C2(Cl)Cl (stereo unspecified) , thanks.
1.01

Dear colleague, I am looking for the recorded growth AUC of the following compound: CCOP(=S)(OCC)SCS(=O)(=O)C(C)(C)C
0.966

// query growth AUC value for entry COCC(=O)N(c1c(C)cccc1C)C(C)C(=O)OC (stereo unspecified)
1.1

Param item = CCCCC(O)(Cn1cncn1)c1ccc(Cl)cc1Cl (stereo unspecified) ; retrieve measured growth AUC.
1.02

Consider the compound shown here: O=c1oc2ccccc2c(O)c1C1CC(c2ccc(-c3ccc(Br)cc3)cc2)Cc2ccccc21 (stereo unspecified) What is its recorded growth AUC?
0.647

Record request: growth AUC value, item CNC(=O)Oc1ccc(N(C)C)c(C)c1
0.979

Data request, read-out growth AUC, for CCOC(=O)CC(SP(=O)(OC)OC)C(=O)OCC (stereo unspecified)
0.996

Returns the measured growth AUC for the input compound. Input: CCNC(=O)NC(=O)/C(C#N)=N/OC
0.901

###

- System: Bacteroides clarus
- run.description: growth AUC relative to DMSO control (median of replicates) (fraction); higher = more growth (less inhibition), active = hit call of the paper
- setup.conditions: 20 µM; 24 h
reported.property: growth AUC
When you answer, write just the number.

• OC(c1ccc(F)cc1)(c1cncnc1)c1ccccc1Cl (stereo unspecified) = 0.951
• COC(C)(C)CCCC(C)C/C=C/C(C)=C/C(=O)OC(C)C (stereo unspecified) = 0.989
• CCC(C)(C)C(=O)OC1=C(c2ccc(Cl)cc2Cl)C(=O)OC12CCCCC2 = 0.975
• O=c1c2cc(F)ccc2nc(-n2cncn2)n1-c1ccc(Cl)cc1Cl = 0.979
• COCc1cnc(C2=NC(C)(C(C)C)C(=O)N2)c(C(=O)O)c1 (stereo unspecified) = 1.03

Please provide the recorded growth AUC for CCCC(Cn1cncn1)c1ccc(Cl)cc1Cl (stereo unspecified) , tested on Bacteroides clarus.
0.987

Requested read-out growth AUC, target or system Bacteroides clarus, entry COC(=O)N(C(=O)N1CO[C@@]2(C(=O)OC)Cc3cc(Cl)ccc3C2=N1)c1ccc(OC(F)(F)F)cc1
0.965

I'm curious: which growth AUC was measured for O=P(O)(O)CCCl tested on Bacteroides clarus?
1.02

Notebook entry, Bacteroides clarus assay: growth AUC of CC(C)OC(=O)Nc1ccccc1 = ?
1.02

API: value(readout= growth AUC, system= Bacteroides clarus, query= CCS(=O)(=O)CCSP(=O)(OC)OC )
0.962

Provide value of growth AUC for this record tested with Bacteroides clarus: COC(=O)/C(C)=C/OP(=S)(OC)OC
0.963

###

- System: Odoribacter splanchnicus
- run.description: growth AUC relative to DMSO control (median of replicates) (fraction); higher = more growth (less inhibition), active = hit call of the paper
- setup.conditions: 20 µM; 24 h
reported.property: growth AUC
Just the number, please.

• CCC/C(=N\OCC)C1=C(O)CC(CC(C)SCC)CC1=O (centres undefined) = 0.979
• CN(C)C(CSS(=O)(=O)[O-])CSS(=O)(=O)O.[Na+] = 1.05
• O=C(O)COc1cc(Cl)c(Cl)cc1Cl = 0.98
• COP(=O)(OC)Oc1ccc([N+](=O)[O-])cc1 = 0.954
• CCOP(=S)(OCC)SCSc1ccc(Cl)cc1 = 1.06
• O=C(O)C(Cl)Cl = 0.997

I am curious: what growth AUC value has been reported for C/C(=N/Nc1nc(C)cc(C)n1)c1ccccc1C ?
0.666

What value of growth AUC has been recorded for this entry: CC(CCl)OP(=O)(OC(C)CCl)OC(C)CCl (mixture of isomers)
1.01

# lookup: growth AUC of Cc1cnc(C2=NC(C)(C(C)C)C(=O)N2)c(C(=O)O)c1 (centres undefined)
0.953

Please give the measured growth AUC for this molecule: CCOP(=O)(OCC)ON1C(=O)c2cccc3cccc(c23)C1=O
0.484

Query: growth AUC; subject: CCOP(=S)(OCC)Oc1cc(Cl)c(Br)cc1Cl
0.968

I'd like to know its growth AUC. The molecule in question is CCOP(=S)(OCC)Oc1cc(C)nc(C(C)C)n1
0.999

Give its growth AUC value. Item: CCOP(=S)(OCC)Oc1cc(C)nc(N(CC)CC)n1
1.08

For the molecule O=c1oc2ccccc2c(O)c1C(CC(O)c1ccc(-c2ccc(Br)cc2)cc1)c1ccccc1 (centres undefined) , what growth AUC is on record?
0.167

# query: growth AUC of entry CO/N=C(/C(=O)OC)c1ccccc1CO/N=C(\C)c1cccc(C(F)(F)F)c1
1.01

Returns the measured growth AUC for the input molecule. Input: Clc1ccccc1Cl
0.95

// returns reported growth AUC for input CCOC(=O)N(C)C(=O)CSP(=S)(OCC)OCC
1.03

Param item = Nc1c(Cl)c(Cl)c(Cl)c(Cl)c1Cl ; retrieve measured growth AUC.
0.993

Please look up its growth AUC: CCC(C)(NC(=O)c1cc(Cl)c(C)c(Cl)c1)C(=O)CCl (centres undefined)
0.914

Param item = CCCN(CCC)c1c([N+](=O)[O-])cc(S(N)(=O)=O)cc1[N+](=O)[O-] ; retrieve measured growth AUC.
0.934

Quick check: growth AUC of OC(Cn1cncn1)(c1ccc(F)cc1)c1ccccc1F (centres undefined) ?
0.979

###

- Test system: Eubacterium rectale
- run.description: growth AUC relative to DMSO control (median of replicates) (fraction); higher = more growth (less inhibition), active = hit call of the paper
- setup.conditions: 20 µM; 24 h
reported.property: growth AUC
Reply: number alone, nothing else.

Reference set (5 entries):
• CC(C)OC(=O)C(C(=O)OC(C)C)=C1SCCS1 = 1.02
• CCNc1nc(NC(C)C)nc(SC)n1 = 1
• O=C1C2(Cl)C3(Cl)C4(Cl)C(Cl)(Cl)C5(Cl)C3(Cl)C1(Cl)C5(Cl)C24Cl (configuration not stated) = 0.696
• COc1nc(NC(C)C)nc(NC(C)C)n1 = 0.97
• COc1cnc(OC)n2nc(NS(=O)(=O)c3c(OCC(F)F)cccc3C(F)(F)F)nc12 = 0.954

Please examine the following record next.
Reported growth AUC for CC(=O)O.CC(=O)O.CC(=O)O.NC(N)=NCCCCCCCCNCCCCCCCCN=C(N)N : what is it?
0.0201
